- Experimental Protocol: TOX21_p53_BLA_p4_viability: Viability Assessment in the Tox21 HCT-116 p53 Agonism Beta-lactamase Assay, Phase 4 (AID 2283597);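 further: hits lower the luminescence signal meaning cytotoxicity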
Inconclusive results are not listed. Calls of active or inactive are those of the source. How the source made its calls: active means hit-call score of the fitted dose curve at least 0.9, where 1 is the maximum; inconclusive means response in the unintended direction; inactive means score below 0.9.
Write down the outcome that applies. Available outcomes: active, inactive

These solved cases illustrate the format of a correct answer.
Compound: C=C(C)C(=O)OCC(CC)CCCC (stereo not given)
Cat: inactive

Compound: O=C(NC(=O)c1c(F)cccc1F)Nc1cc(Cl)c(Oc2ncc(C(F)(F)F)cc2Cl)c(Cl)c1
Cat: active

Compound: Cc1cc(-c2cc(C)c(N)c(C)c2)cc(C)c1N
Cat: inactive

Compound: OCCCCO
Cat: inactive

Compound: CC(C)C(C)(N)C#N (stereo not given)
Cat: inactive

Ask: Just curious, what result did Cc1c([N+](=O)[O-])c(C)c([N+](=O)[O-])c(C(C)(C)C)c1[N+](=O)[O-] get here?
Result: active

Ask: Recorded test outcome, item O=S1(=O)OC(c2cc(Br)c(O)c(Br)c2)(c2cc(Br)c(O)c(Br)c2)c2ccccc21
Result: active
